- Tested on: Human immunodeficiency virus 1
- experimental-details: Inhibitory activity against HIV-1 mutant strain 227C
- Format: functional, organism-based
Would you kindly list pIC50 for each of these molecules?
Notebook: values listed as pIC50 are -log10 of the concentration (mol/L).

Briefly, pIC50 measured for O=C1Nc2ccc(Cl)cc2[C@@](C#CC2CC2)(C(F)(F)F)O1 [EFAVIRENZ] : 6.82

Briefly, pIC50 measured for CCc1c(C)nc(O)c(N(C)C)c1C(=O)c1cc(Cl)cc(Cl)c1 : 6.20

Briefly, pIC50 measured for CCc1c(C)[nH]c(=O)c(N(C)C)c1C(=O)c1cc(C)cc(C)c1 : 6.20

Briefly, pIC50 measured for Cc1ccnc2c1NC(=O)c1cccnc1N2C1CC1 [NEVIRAPINE] : 6.89

Briefly, pIC50 measured for CCOCn1c(Cc2ccccc2)c(C(C)C)c(=O)[nH]c1=O [EMIVIRINE] : 4.10

Briefly, pIC50 measured for CCc1c(C)nc(O)c(N(C)C)c1Cc1cc(Cl)cc(Cl)c1 : 6.15

Briefly, pIC50 measured for CCc1c(C)nc(O)c(N(C)C)c1Cc1cccc(/C=C/C#N)c1 : 6.41

Briefly, pIC50 measured for CCc1c(C)nc(O)c(N(C)C)c1C(=O)c1cccc(/C=C/C#N)c1 : 6.10

Briefly, pIC50 measured for CCc1c(C)nc(O)c(N(C)C)c1C(=O)c1cccc(C#N)c1 : 6.66

Briefly, pIC50 measured for CCc1c(C)nc(O)c(N(C)C)c1C(=O)c1cccc(Br)c1 : 6.59

Briefly, pIC50 measured for CCc1c(C)nc(O)c(N(C)C)c1C(=O)c1cccc(/C(C)=C/C#N)c1 : 5.90

###

Would you kindly list pIC50 for each of these molecules?
- System: Human immunodeficiency virus 1
- experimental-details: Inhibitory activity against HIV-1 double mutants strain 103N and 181C
- Type: functional, organism-based
Notebook: values listed as pIC50 are -log10 of the concentration (mol/L).

Briefly, pIC50 measured for CCc1c(C)nc(O)c(N(C)C)c1C(=O)c1cccc(C#N)c1 : 6.96

Briefly, pIC50 measured for CCc1c(C)nc(O)c(N(C)C)c1C(=O)c1cc(Cl)cc(Cl)c1 : 6.82

Briefly, pIC50 measured for CCc1c(C)[nH]c(=O)c(N(C)C)c1C(=O)c1cc(C)cc(C)c1 : 6.82

###

- Test system: Human immunodeficiency virus 1
- experimental-details: Inhibitory activity against HIV-1 mutant strain 188L
- Assay type: functional, organism-based
pIC50: −log10 of the molar value.
Returns true (1) if the recorded pIC50 is greater than or equal to 6, and false (0) otherwise.

Req: Decide: is the reported value of pIC50 for CCOC(=O)/C=C/c1cccc(C(=O)c2c(CC)c(C)nc(O)c2N(C)C)c1 equal to or greater than 6?
Resp: true (1)

Req: Decide: is the reported value of pIC50 for CCc1c(C)nc(O)c(N(C)C)c1C(=O)c1cc(Br)cs1 equal to or greater than 6?
Resp: false (0)

Req: Decide: is the reported value of pIC50 for CCc1c(C)nc(O)c(N(C)C)c1Cc1cccc(C(F)(F)F)c1 equal to or greater than 6?
Resp: false (0)

Req: Decide: is the reported value of pIC50 for CCc1c(C)nc(O)c(N(C)C)c1Cc1ccccc1Br equal to or greater than 6?
Resp: false (0)

Req: Decide: is the reported value of pIC50 for CCc1c(C)nc(O)c(N(C)C)c1C(=O)c1cccc(-c2cccnc2)c1 equal to or greater than 6?
Resp: false (0)

Req: Decide: is the reported value of pIC50 for CCc1c(C)nc(O)c(N(C)C)c1Cc1cccc(Cl)c1 equal to or greater than 6?
Resp: false (0)

Req: Decide: is the reported value of pIC50 for CCc1c(C)nc(O)c(N(C)C)c1C(=O)c1cccc(/C(C)=C/C#N)c1 equal to or greater than 6?
Resp: true (1)

Req: Decide: is the reported value of pIC50 for CCc1c(C)nc(O)c(N(C)C)c1C(=O)c1cccc(/C=C\C#N)c1 equal to or greater than 6?
Resp: true (1)

Req: Decide: is the reported value of pIC50 for CCc1c(C)nc(O)c(N(C)C)c1C(=O)c1cccc(C#N)c1 equal to or greater than 6?
Resp: true (1)

Req: Decide: is the reported value of pIC50 for CCc1c(C)nc(O)c(N(C)C)c1C(=O)c1cccc([N+](=O)[O-])c1 equal to or greater than 6?
Resp: false (0)

Req: Decide: is the reported value of pIC50 for O=C1Nc2ccc(Cl)cc2[C@@](C#CC2CC2)(C(F)(F)F)O1 equal to or greater than 6?
Resp: true (1)

Req: Decide: is the reported value of pIC50 for CCc1c(C)nc(O)c(N(C)C)c1Cc1ccccc1C equal to or greater than 6?
Resp: false (0)

Req: Decide: is the reported value of pIC50 for CCc1c(C)nc(O)c(N(C)C)c1C(=O)c1cccc(C(C)=O)c1 equal to or greater than 6?
Resp: false (0)

Req: Decide: is the reported value of pIC50 for CCc1c(C)nc(O)c(N(C)C)c1Cc1cc(F)cc(F)c1 equal to or greater than 6?
Resp: true (1)

###

Would you kindly list IC50 for each of these compounds?
- Tested on: Human immunodeficiency virus 1
- experimental-details: Inhibitory activity against HIV-1 mutant strain 188L
- Assay type: functional, organism-based
Reply with just the number (in nM).

Measured IC50 (Human immunodeficiency virus 1), entry C=Cc1cccc(C(=O)c2c(CC)c(C)nc(O)c2N(C)C)c1 : 790

Measured IC50 (Human immunodeficiency virus 1), entry CCc1c(C)nc(O)c(N(C)C)c1Cc1ccccc1Cl : 790

Measured IC50 (Human immunodeficiency virus 1), entry CCc1c(C)nc(O)c(N(C)C)c1C(=O)c1cccc(CC#N)c1 : 1000
